Please go through the items and note down their pIC50.
- Assayed System: human TLR8 (Homo sapiens)
- Sequence (Q9NR97 27-1041): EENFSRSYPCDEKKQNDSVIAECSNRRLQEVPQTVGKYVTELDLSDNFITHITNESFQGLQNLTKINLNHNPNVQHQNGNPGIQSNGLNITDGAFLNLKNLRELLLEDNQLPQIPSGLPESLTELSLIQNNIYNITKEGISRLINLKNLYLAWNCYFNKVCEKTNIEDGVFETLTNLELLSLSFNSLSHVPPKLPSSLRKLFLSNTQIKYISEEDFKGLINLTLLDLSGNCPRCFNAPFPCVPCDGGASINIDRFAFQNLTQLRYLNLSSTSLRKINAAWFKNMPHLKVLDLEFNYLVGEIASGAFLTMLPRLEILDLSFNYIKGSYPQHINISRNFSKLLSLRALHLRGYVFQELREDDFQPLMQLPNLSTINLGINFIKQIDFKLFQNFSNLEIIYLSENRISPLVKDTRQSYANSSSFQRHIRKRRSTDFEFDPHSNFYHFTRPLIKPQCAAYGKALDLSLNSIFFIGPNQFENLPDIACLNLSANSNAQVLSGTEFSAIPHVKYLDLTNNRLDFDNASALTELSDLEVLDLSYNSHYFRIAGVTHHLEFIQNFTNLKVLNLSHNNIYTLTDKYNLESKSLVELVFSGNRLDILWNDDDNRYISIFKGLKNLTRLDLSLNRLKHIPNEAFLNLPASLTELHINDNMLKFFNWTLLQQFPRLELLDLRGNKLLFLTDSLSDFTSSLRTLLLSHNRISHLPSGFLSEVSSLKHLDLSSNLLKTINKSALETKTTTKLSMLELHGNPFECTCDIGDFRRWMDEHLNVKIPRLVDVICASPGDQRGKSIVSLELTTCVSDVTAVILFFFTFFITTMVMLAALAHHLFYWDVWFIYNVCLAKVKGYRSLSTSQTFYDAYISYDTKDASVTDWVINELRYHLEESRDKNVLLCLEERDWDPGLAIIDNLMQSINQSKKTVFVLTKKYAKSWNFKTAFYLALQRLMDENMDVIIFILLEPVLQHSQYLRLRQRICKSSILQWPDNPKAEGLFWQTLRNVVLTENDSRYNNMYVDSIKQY
- Assay Method Text: TLR8 inhibition reporter assay (HEK-Blue cells, SEAP reporter, R848 stimulation)
- Test Settings: HEK-Blue cells overexpressing human TLR8, SEAP reporter, R848 15.9 μM
- Description: TLR7/8/9 Inhibition Reporter Assays HEK-Blue™-cells (Invivogen) overexpressing human TLR7, TLR8 or TLR9 receptors were used for screening inhibitors of these receptors using an inducible SEAP (secreted embryonic alkaline phosphatase) reporter gene under the control of the IFN-β minimal promoter fused to five NF-κB and AP-1-binding sites. […]
Structures can show the parent of a compound that is named as a salt.
Please express pIC50 as -log10 of the molar concentration.

Quote pIC50 reported for "Cc1cc(-c2[nH]nc(C(=O)N(C)CCCN(C)C)c2C(C)C)cn2ncnc12" please. 7.90

Quote pIC50 reported for "COc1cc(-c2[nH]nc(-c3cnc(C4CCN(C)CC4)cn3)c2C(C)C)cn2ncnc12" please. 8.04

Quote pIC50 reported for "Cc1cc(-c2[nH]nc(C(=O)NC3CCN(C(C)C)CC3)c2C(C)C)ccn1" please. 8.35

Quote pIC50 reported for "COCCN1CCc2cc(-c3n[nH]c(-c4cc(C)c5ncnn5c4)c3C(C)C)ccc2C1" please. 8.35

Quote pIC50 reported for "Cc1cc(-c2[nH]nc(C(=O)N[C@H]3CCCNC3)c2C(C)C)cn2ncnc12" please. 8.43

Quote pIC50 reported for "CCN(CCC#N)C(=O)c1n[nH]c(-c2cc(C)c3ncnn3c2)c1C(C)C" please. 8.09

Quote pIC50 reported for Cc1cc(-c2[nH]nc(-c3ccc4c(c3)CCNC4)c2C(C)C)cn2ncnc12 [Example 213, HCl] please. 8.47

Quote pIC50 reported for "Cc1cc(-c2[nH]nc(C(=O)NC[C@H]3CC[C@H](N)CC3)c2C(C)C)cn2ncnc12" please. 9.25

Quote pIC50 reported for "Cc1cc(-c2[nH]nc(-c3ccc(C4CN(C)C4)cc3)c2C(C)C)cn2ncnc12" please. 8.65

Quote pIC50 reported for "COCCN1CCC(c2ccc(-c3n[nH]c(-c4cc(OC)c5ncnn5c4)c3C(C)C)cc2)CC1" please. 9.08

Quote pIC50 reported for "Cc1cc(-c2[nH]nc(-c3ncc(C4CCNCC4)cn3)c2C(C)C)cn2ncnc12" please. 8.05

Quote pIC50 reported for "Cc1cc(-c2[nH]nc(C(=O)N[C@H]3CC[C@H](N(C)C)CC3)c2C(C)C)cn2ncnc12" please. 7.36

Quote pIC50 reported for "Cc1cc(-c2[nH]nc(C(=O)NC3CCN(C(=O)OC(C)(C)C)CC3)c2C(C)C)cn2ncnc12" please. 8.09

Quote pIC50 reported for "Cc1cc(-c2[nH]nc(-c3ccc4c(c3)CCN(C(C)C)C4)c2C(C)C)cn2ncnc12" please. 6.81

Quote pIC50 reported for Cc1cc(-c2[nH]nc(C(=O)N[C@H]3CC[C@@H](NC4CCOC(C)(C)C4)CC3)c2C(C)C)cn2ncnc12 (stereo partly shown) please. 7.38

Quote pIC50 reported for "COc1ncc(CN[C@H]2CC[C@@H](NC(=O)c3n[nH]c(-c4cc(C)c5ncnn5c4)c3C(C)C)CC2)cn1" please. 9.01

Quote pIC50 reported for "Cc1cc(-c2[nH]nc(C(=O)N[C@H]3CC[C@H](N(CC4CC4)CC4CC4)CC3)c2C(C)C)cn2ncnc12" please. 8.46

Quote pIC50 reported for "Cc1cc(-c2[nH]nc(-c3ccc(C4CN(CC(C)(C)O)C4)cc3)c2C(C)C)cn2ncnc12" please. 7.40

Quote pIC50 reported for "Cc1cc(-c2[nH]nc(C(=O)NCCc3ccccn3)c2C(C)C)cn2ncnc12" please. 7.47

Quote pIC50 reported for "Cc1cc(-c2[nH]nc(C(=O)N[C@H]3CC[C@@H](N(C)C)CC3)c2C(C)C)cn2ncnc12" please. 9.08

Quote pIC50 reported for "CCN1CCC(c2ccc(-c3n[nH]c(-c4cc(OC)c5ncnn5c4)c3C(C)C)cc2)CC1" please. 7.69

Quote pIC50 reported for "Cc1cc(-c2[nH]nc(-c3ccc(C4CN(C(C)C)C4)cc3)c2C(C)C)cn2ncnc12" please. 8.15

Quote pIC50 reported for "Cc1cc(-c2[nH]nc(-c3cccc(NC(C)C)c3)c2C(C)C)cn2ncnc12" please. 7.79

Quote pIC50 reported for "COCCN1CCc2nc(-c3n[nH]c(-c4cc(C)c5ncnn5c4)c3C(C)C)sc2C1" please. 7.22

Quote pIC50 reported for "Cc1cc(-c2[nH]nc(C(=O)NC3CN(C(C)C)C3)c2C(C)C)cn2ncnc12" please. 7.67

Each recorded value in this set is attributed to patent US20230117470A1.
